Consider the following pIC50 values measured on MET (human) (Homo sapiens).
Sequence (P08581 25-1390): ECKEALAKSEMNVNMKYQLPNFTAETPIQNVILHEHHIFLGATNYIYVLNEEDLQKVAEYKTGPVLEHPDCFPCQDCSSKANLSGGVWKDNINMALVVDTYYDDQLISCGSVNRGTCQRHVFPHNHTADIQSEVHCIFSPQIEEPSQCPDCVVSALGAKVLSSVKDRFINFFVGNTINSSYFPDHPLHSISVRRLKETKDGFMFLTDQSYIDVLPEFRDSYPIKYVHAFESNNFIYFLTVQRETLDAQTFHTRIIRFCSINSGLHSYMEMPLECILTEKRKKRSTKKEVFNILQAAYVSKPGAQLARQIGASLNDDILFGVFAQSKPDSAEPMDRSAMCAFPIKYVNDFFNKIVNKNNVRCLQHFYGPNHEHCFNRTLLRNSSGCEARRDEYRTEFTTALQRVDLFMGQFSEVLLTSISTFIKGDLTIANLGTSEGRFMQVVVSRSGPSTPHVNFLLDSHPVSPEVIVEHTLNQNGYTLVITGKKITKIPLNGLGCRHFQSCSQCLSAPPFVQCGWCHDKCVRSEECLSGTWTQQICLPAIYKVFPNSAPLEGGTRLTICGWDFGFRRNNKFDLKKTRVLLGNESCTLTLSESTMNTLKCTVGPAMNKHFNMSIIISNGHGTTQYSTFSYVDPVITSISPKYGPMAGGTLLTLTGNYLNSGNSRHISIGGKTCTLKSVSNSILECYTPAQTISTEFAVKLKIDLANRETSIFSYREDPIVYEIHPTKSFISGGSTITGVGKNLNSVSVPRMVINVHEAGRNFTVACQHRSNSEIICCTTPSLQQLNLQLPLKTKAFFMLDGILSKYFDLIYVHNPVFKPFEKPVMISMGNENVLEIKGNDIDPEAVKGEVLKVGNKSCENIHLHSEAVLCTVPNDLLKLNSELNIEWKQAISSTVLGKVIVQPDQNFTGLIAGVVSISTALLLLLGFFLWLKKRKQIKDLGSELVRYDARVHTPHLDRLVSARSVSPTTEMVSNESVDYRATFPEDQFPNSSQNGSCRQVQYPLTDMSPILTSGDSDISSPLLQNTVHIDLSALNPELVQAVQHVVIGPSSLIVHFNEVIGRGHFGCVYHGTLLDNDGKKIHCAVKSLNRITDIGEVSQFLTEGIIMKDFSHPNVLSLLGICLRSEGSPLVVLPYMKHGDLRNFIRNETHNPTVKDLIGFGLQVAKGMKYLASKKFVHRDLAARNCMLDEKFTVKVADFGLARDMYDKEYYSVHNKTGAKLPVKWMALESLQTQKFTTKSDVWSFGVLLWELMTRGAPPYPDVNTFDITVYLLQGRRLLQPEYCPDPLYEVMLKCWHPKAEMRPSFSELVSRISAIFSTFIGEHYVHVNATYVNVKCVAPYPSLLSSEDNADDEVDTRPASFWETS
pIC50: −log10 of the molar value. Structures can show the parent of a compound that is named as a salt.

For orientation, consider the following solved cases.
{"COMPOUND": "Cc1ccc(C)c2cc(-c3cc(-c4cnn(C5CCNCC5)c4)cnc3N)ncc12 [Example 20, trihydrochloride salt]", "SYSTEM_UNDER_TEST": "MET (human) (Homo sapiens)", "ENDPOINT_NAME": "pIC50", "READOUT_VALUE": "6.00 to 7.00"}
{"COMPOUND": "Nc1ncc(-c2cnn(C3CCNCC3)c2)cc1-c1oc2ccccc2c1Cl [Example 93, dihydrochloride]", "SYSTEM_UNDER_TEST": "MET (human) (Homo sapiens)", "ENDPOINT_NAME": "pIC50", "READOUT_VALUE": "6.00 to 7.00"}

The reported pIC50 of the compound Nc1ncc(-c2cnn(C3CCNCC3)c2)cc1-c1cc2c(Cl)c(F)cc(F)c2cn1 [Example 15, trihydrochloride salt] was ≥ 7.00
